assay: qHTS RealTime-Glo MT Cell Viability Assay in HepG2 cells - 0 hour (AID 1224889); details: RealTime-Glo luminescence; series mostly up to 76.8 µM; note: nearly all actives have a fitted effect of over 50% in size
Records with an inconclusive call do not appear. The source made the active and inactive calls. Calls come from the whole dose curve; as a rule, active = well fitted cell-killing curve with a large enough effect in the repeat runs; inconclusive = weak or mixed curves, or effect the other way; inactive = flat fitted curve, though single readings scatter.
The reply should name one outcome from active, inactive

Known results for compounds:
COMPOUND | LABEL
CCOC(=O)COc1cc(-c2nn(C)c(OC(F)F)c2Cl)c(F)cc1Cl | inactive
S=C=NCc1ccccc1 | inactive
CCCN(CC1CC1)c1c([N+](=O)[O-])cc(C(F)(F)F)cc1[N+](=O)[O-] | inactive
O=C(Nc1ccccc1)Nc1cnns1 | inactive

Then there is this compound:
QUERY: How was `CCOP(=S)(OCC)Oc1nc(Cl)c(Cl)cc1Cl` classified in this test?
RESULT: inactive

---

test: A CellTox Green Cytotoxicity Assay to monitor cytotoxicity in HepG2 cells - 16 hour (AID 1224876); settings: CellTox Green fluorescence; series mostly up to 76.8 µM; note: nearly all actives have a fitted effect of over 45% in size
Inconclusive results are not listed. Activity calls are given as the source filed them. Calls follow the shape of the dose curve; as a rule, active = well fitted activation curve with a large enough effect in the repeat runs; inconclusive = weak or mixed curves; inactive = flat fitted curve, though single readings scatter.
Just give me one of these, please: yes = active, no = inactive

Reference set (10 entries):
COMPOUND | LABEL
C[C@H]1CNCCc2ccc(Cl)cc21 | no
CN1[C@@H]2CC[C@H]1CC(OC(=O)c1cc(Cl)cc(Cl)c1)C2 (some centres undefined) | yes
CCCCc1c(C)nc(NCC)nc1OS(=O)(=O)N(C)C | no
COC(=O)c1cncn1C(C)c1ccccc1 (centres undefined) | no
C=CC(=O)OC(C)(C)C | no
O=S(=O)(Cl)c1ccccc1 | no
CCOC(=O)[C@]1(c2ccccc2)Oc2ccccc2[C@@H]1N | no
Cc1ccc(N)cc1C | no
CCCCCCC#N | no
O=S1(=O)OC(c2cc(Br)c(O)c(Br)c2)(c2cc(Br)c(O)c(Br)c2)c2ccccc21 | no

QUERY: Per the assay record, what outcome was assigned to `C=C(C#N)CCC#N` ?
RESULT: no

QUERY: Please let me know the test result on file for `O=C(Nc1ccccc1)Nc1cnns1` .
RESULT: no

QUERY: Just curious, what result did `C=COC(C)=O` get here?
RESULT: no

QUERY: Assay result, entry `O=C=Nc1ccc(Cl)cc1` — outcome?
RESULT: no

---

biological target: Estrogen receptor beta (Homo sapiens) (UniProt Q92731); assay: qHTS assay to identify small molecule agonists of the estrogen receptor beta (ER-beta) signaling pathway (AID 1259377); details: ER-beta-UAS-bla HEK293T, beta-lactamase FRET ratio, 16 h; series mostly up to 92.4 µM
Sequence (Q92731 whole entry, looked up): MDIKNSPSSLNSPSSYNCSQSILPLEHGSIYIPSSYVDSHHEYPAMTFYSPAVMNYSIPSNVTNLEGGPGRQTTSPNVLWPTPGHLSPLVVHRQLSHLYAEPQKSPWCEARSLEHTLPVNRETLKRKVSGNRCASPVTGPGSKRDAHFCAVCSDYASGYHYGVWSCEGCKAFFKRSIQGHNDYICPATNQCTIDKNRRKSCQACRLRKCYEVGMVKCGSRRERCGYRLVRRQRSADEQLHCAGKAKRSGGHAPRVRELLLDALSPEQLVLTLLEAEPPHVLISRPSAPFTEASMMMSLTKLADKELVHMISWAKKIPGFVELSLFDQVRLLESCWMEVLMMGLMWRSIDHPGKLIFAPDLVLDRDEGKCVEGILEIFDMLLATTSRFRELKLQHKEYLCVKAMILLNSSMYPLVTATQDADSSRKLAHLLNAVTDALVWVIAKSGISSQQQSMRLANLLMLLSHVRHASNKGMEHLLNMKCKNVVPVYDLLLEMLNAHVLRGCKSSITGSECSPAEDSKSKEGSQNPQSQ
Inconclusive results are not listed. The source made the active and inactive calls. The call rests on the fitted dose curve; in most records, active means well fitted activation curve with a large enough effect in the signal ratio in the repeat runs (not every such curve was filed as active); inconclusive means weak or mixed curves, or effect the other way; inactive means flat fitted curve, though single readings scatter; the % refers to the signal ratio.
ENDPOINT LABEL: activation

Worked examples, 5 compounds total:
COMPOUND | RESULT
C=CC(=O)OCC(C)C | inactive
CC/C(=N\OC/C=C/Cl)C1=C(O)CC(C2CCOCC2)CC1=O (configuration not stated) | inactive
CCOP(=O)(OCC)Oc1ccc([N+](=O)[O-])cc1 | inactive
CC(Cl)Cl | inactive
CN1C[C@H](CNC(=O)OCc2ccccc2)C[C@@H]2c3cccc4c3c(cn4C)C[C@H]21 | inactive

# batch: return activation for each of the 2 compounds below
1. C#CCOC(C(=O)OCCN(C)C)(c1ccccc1)c1ccccc1
2. N#C/C(N)=C(/N)C#N

RESULT:
inactive
inactive
